target: Feline_OSMR_hlgG1_Fc (feline); assay: SPR Biacore, OSMR on chip
Sequence (chain, as listed by the source limits assumed, form in doubt): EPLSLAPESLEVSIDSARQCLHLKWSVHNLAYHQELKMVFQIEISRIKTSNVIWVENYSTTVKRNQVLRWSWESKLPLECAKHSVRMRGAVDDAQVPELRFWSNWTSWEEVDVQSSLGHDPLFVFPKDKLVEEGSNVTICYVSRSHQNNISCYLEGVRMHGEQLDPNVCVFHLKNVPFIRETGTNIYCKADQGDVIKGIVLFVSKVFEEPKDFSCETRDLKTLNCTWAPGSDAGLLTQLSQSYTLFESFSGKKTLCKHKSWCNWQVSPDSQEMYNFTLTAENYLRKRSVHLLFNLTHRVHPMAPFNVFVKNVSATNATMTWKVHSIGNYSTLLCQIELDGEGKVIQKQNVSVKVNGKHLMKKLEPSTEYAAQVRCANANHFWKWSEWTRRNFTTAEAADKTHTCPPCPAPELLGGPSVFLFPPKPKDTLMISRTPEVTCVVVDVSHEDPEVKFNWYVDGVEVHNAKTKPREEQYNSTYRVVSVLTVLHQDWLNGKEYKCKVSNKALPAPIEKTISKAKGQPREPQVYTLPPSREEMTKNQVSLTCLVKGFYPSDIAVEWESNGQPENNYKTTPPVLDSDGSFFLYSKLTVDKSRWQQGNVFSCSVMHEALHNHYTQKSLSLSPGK
PROPERTY_LABEL: kon (M⁻¹ s⁻¹)
Form entry: value (M⁻¹ s⁻¹) — number only.

Which value of kon has been reported for mouse: canine 09E09 chimera (antibody, V domains shown) VH: DVKLVESGEGLVKPGGSLKLSCAASGFTFSSYAMSWVRQTPEKRLEWVAYISSGGDYIYYADTVKGRFTISRDNARNTLYLQMSSLKSEDTAMYYCTRDPITGTFAYWGQGTLVTVSA VL: DLQMTQTTSSLSASLGDRVTISCRASQDINNYLNWYQQKPDGTVKLLIYYTSTLHSGVPSRFSGSGSGTDYSLTISNLEQEDIATYFCQQGNTLPWTFGGGTKLEIKR in the records?
294000
